Test system: PPARg homodimer (NR concentration 180 nM)
assay comment: PBM binding z-score (relative to random genomic background probes); higher = stronger binding; sequences stand for … in GC…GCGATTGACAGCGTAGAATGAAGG
measurement label: PBM binding z-score
Hey, just send me the number, nothing else.

CGAACGAGGGCATGAGTTAATAGCAAATGCCGAT -0.39
GGAACGAGGGCCAAGTTGATAGCATCTGTCGACG -0.0593
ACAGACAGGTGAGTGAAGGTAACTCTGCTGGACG -0.0621

Kindly note: PPARg homodimer (NR concentration 180 nM), "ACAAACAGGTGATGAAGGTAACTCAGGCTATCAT" , PBM binding z-score value reported: 0.773

Kindly note: PPARg homodimer (NR concentration 180 nM), "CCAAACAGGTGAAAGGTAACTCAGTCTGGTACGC" , PBM binding z-score value reported: 1.17

Kindly note: PPARg homodimer (NR concentration 180 nM), "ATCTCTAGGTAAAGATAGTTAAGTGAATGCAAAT" , PBM binding z-score value reported: 0.449

Kindly note: PPARg homodimer (NR concentration 180 nM), "CGTCAAAGTTCAAGGTAACGTCACAGAAAGCAGC" , PBM binding z-score value reported: 2.9

Kindly note: PPARg homodimer (NR concentration 180 nM), "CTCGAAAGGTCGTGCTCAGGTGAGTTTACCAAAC" , PBM binding z-score value reported: 3.04

Kindly note: PPARg homodimer (NR concentration 180 nM), "CGAACTAGGTCAGTGACAGGACAGTGAATAGTAA" , PBM binding z-score value reported: 0.785

Kindly note: PPARg homodimer (NR concentration 180 nM), "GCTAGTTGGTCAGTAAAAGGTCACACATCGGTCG" , PBM binding z-score value reported: 4.49

* * *

Each record here notes measured PBM binding z-score.
System: PPARg homodimer (NR concentration 180 nM)
assay comment: PBM binding z-score (relative to random genomic background probes); higher = stronger binding; sequences stand for … in GC…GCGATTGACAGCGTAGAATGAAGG
Hey, just send me the number, nothing else.

Consider the worked cases shown below.
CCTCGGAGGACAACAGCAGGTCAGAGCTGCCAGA 0.749
GATACAGGGTCAGTTAGAGGCCAGAGTATGGAAA 2.89
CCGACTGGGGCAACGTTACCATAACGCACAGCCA -0.224

Here is the next item to consider.
"GGAACGAGGGCACTCGAGTTGATAGCATGGCGAT" has a reported PBM binding z-score of -0.479

* * *

Test system: PPARg:RXRa DBDmut IVT, anti-RXR (DBD mutation: RXRa K156A/R161A, NR concentration 270 nM, RXRa partner concentration 90 nM)
assay comment: PBM binding z-score (relative to random genomic background probes); higher = stronger binding; sequences stand for … in GC…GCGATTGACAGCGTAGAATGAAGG
Each record here notes measured PBM binding z-score.
Hey, just send me the number, nothing else.

"ATCGAAAGGTCGAGGTCAGTATAGAGAAAGGGAA" has a reported PBM binding z-score of 0.84

"CGAACTAGGTCAATGACAGTGAATCTCCGCACGC" has a reported PBM binding z-score of 7.95

"GCAGACAGGTGAAACGCAGCTAACTCAGGGTGGC" has a reported PBM binding z-score of 0.771

"AGTCAAAGTTCATCTAGTTAACGTAAGATATGCT" has a reported PBM binding z-score of 0.113

"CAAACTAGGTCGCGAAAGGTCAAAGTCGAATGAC" has a reported PBM binding z-score of 6.96

"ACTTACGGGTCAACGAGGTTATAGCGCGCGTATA" has a reported PBM binding z-score of 3.58

"ATCGAAAGGTCGAAGGTGAGTATGCCCACCCGAA" has a reported PBM binding z-score of 0.0846

"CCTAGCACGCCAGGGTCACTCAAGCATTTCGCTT" has a reported PBM binding z-score of -0.508

"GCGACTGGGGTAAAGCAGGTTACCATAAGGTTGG" has a reported PBM binding z-score of 3.33

"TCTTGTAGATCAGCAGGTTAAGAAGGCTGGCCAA" has a reported PBM binding z-score of 1.84

"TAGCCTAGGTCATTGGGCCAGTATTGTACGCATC" has a reported PBM binding z-score of 2.88

"TAGCCTAGGTCAGATCGGACCAGTATACGCTATA" has a reported PBM binding z-score of 0.812

"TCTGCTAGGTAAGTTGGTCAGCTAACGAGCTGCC" has a reported PBM binding z-score of 0.619

"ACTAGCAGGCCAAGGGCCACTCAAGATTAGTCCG" has a reported PBM binding z-score of 0.244

"CTCGAAAGGTCGGTTAAGGTGAGTATACGGATAA" has a reported PBM binding z-score of 0.549

"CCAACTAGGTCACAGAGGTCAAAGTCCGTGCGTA" has a reported PBM binding z-score of 8.13

"TCATATAGGTAAAAGGTGAAAGTCGGTGTGGTAA" has a reported PBM binding z-score of 5.72

"AGTCACAGTTCATCTAGGTAACGTAAGATATGCT" has a reported PBM binding z-score of 0.901

"TCGAGTAGGTTTCCAATGGGGCATTCAGCTTTCT" has a reported PBM binding z-score of 1.53

"CTACCAAGGTGAACCAGGTCGTTGATTACTATTC" has a reported PBM binding z-score of 2.39

"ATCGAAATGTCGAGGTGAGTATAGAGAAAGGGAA" has a reported PBM binding z-score of -0.755

"CCTACTGCGCCACGAAAGGTCATTGATTCAGTGA" has a reported PBM binding z-score of 0.564

"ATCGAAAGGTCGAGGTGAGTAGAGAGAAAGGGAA" has a reported PBM binding z-score of 0.416

"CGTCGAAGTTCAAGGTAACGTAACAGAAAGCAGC" has a reported PBM binding z-score of -0.377

"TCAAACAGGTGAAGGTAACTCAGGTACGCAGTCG" has a reported PBM binding z-score of 3.03

"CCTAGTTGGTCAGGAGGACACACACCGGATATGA" has a reported PBM binding z-score of 0.664

* * *

System: RARa:RXR (NR concentration 270 nM, RXRa partner concentration 90 nM)
assay comment: PBM binding z-score (relative to random genomic background probes); higher = stronger binding; sequences stand for … in GC…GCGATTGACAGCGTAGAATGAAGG
measurement label: PBM binding z-score
Hey, just send me the number, nothing else.

"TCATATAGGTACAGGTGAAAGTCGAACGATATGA" has a reported PBM binding z-score of 0.718

"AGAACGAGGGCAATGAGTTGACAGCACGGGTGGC" has a reported PBM binding z-score of 0.713

* * *

System: PXR homodimer (NR concentration 270 nM)
assay comment: PBM binding z-score (relative to random genomic background probes); higher = stronger binding; sequences stand for … in GC…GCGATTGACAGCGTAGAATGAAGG
Everything with PBM binding z-score lower than 0.2 is false; everything else, including exactly 0.2, is true.

AGAATGAGGTAAAGATCAGGGAAACAGAATACAT false

Query block: Tell me whether PBM binding z-score is at least 0.2 here: "CGAACTAGGTCATCCAGGACAGTCAATACATTGA"
Result block: true

Query block: Tell me whether PBM binding z-score is at least 0.2 here: "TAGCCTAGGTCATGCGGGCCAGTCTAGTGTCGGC"
Result block: false

Query block: Tell me whether PBM binding z-score is at least 0.2 here: "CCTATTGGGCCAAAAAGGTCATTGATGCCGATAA"
Result block: true

* * *

System: PPARg:RXRa 270nM:90nM, anti-RXR (NR concentration 270 nM, RXRa partner concentration 90 nM)
assay comment: PBM binding z-score (relative to random genomic background probes); higher = stronger binding; sequences stand for … in GC…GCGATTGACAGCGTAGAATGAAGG
Each record here notes measured PBM binding z-score.

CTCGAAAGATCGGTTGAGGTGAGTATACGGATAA -0.226
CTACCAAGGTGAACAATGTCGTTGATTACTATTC 0.75

"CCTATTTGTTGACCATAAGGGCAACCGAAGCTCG" has a reported PBM binding z-score of 0.529

* * *

Each record here notes measured PBM binding z-score.
Tested on: RARa:RXR (NR concentration 270 nM, RXRa partner concentration 90 nM)
assay comment: PBM binding z-score (relative to random genomic background probes); higher = stronger binding; sequences stand for … in GC…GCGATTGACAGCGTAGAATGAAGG
Hey, just send me the number, nothing else.

Kindly note: RARa:RXR (NR concentration 270 nM, RXRa partner concentration 90 nM), "AATACAGGGTCATGGTAGGCCAGAGTACGCACAG" , PBM binding z-score value reported: 5.21

Kindly note: RARa:RXR (NR concentration 270 nM, RXRa partner concentration 90 nM), "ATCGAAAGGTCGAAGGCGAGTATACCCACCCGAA" , PBM binding z-score value reported: 2.87

Kindly note: RARa:RXR (NR concentration 270 nM, RXRa partner concentration 90 nM), "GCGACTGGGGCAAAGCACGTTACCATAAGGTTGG" , PBM binding z-score value reported: -0.0632

Kindly note: RARa:RXR (NR concentration 270 nM, RXRa partner concentration 90 nM), "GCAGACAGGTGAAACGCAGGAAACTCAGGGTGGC" , PBM binding z-score value reported: -0.0101

Kindly note: RARa:RXR (NR concentration 270 nM, RXRa partner concentration 90 nM), "GCGACTGGGGCAAAGGAGGTTACCATAAGGTTGG" , PBM binding z-score value reported: 1.41

Kindly note: RARa:RXR (NR concentration 270 nM, RXRa partner concentration 90 nM), "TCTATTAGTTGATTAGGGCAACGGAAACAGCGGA" , PBM binding z-score value reported: 0.276

Kindly note: RARa:RXR (NR concentration 270 nM, RXRa partner concentration 90 nM), "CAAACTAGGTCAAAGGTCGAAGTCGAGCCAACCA" , PBM binding z-score value reported: 8.46

Kindly note: RARa:RXR (NR concentration 270 nM, RXRa partner concentration 90 nM), "CGAAGTAGGTCATTGACAGGACAGTGAATAGTAA" , PBM binding z-score value reported: 2.66

Kindly note: RARa:RXR (NR concentration 270 nM, RXRa partner concentration 90 nM), "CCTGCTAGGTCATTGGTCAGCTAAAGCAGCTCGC" , PBM binding z-score value reported: 2.07

Kindly note: RARa:RXR (NR concentration 270 nM, RXRa partner concentration 90 nM), "AGAATGAGGTGACCAAAGATCAGGGAAACGCTTG" , PBM binding z-score value reported: 0.899

Kindly note: RARa:RXR (NR concentration 270 nM, RXRa partner concentration 90 nM), "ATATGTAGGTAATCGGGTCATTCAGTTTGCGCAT" , PBM binding z-score value reported: 2.79

Kindly note: RARa:RXR (NR concentration 270 nM, RXRa partner concentration 90 nM), "TCATATAGGAAATACAGGTGAAAGTCGGCATCTA" , PBM binding z-score value reported: 0.964

Kindly note: RARa:RXR (NR concentration 270 nM, RXRa partner concentration 90 nM), "GCTGTTAGTTGAAAGGGCAACCGAATGATTCTCG" , PBM binding z-score value reported: 1.48

Kindly note: RARa:RXR (NR concentration 270 nM, RXRa partner concentration 90 nM), "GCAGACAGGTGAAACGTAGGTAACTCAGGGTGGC" , PBM binding z-score value reported: 0.315

Kindly note: RARa:RXR (NR concentration 270 nM, RXRa partner concentration 90 nM), "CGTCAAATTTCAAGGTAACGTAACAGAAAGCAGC" , PBM binding z-score value reported: 0.634

Kindly note: RARa:RXR (NR concentration 270 nM, RXRa partner concentration 90 nM), "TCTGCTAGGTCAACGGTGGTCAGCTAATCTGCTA" , PBM binding z-score value reported: 2.38

Kindly note: RARa:RXR (NR concentration 270 nM, RXRa partner concentration 90 nM), "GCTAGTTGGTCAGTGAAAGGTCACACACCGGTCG" , PBM binding z-score value reported: 5.89

Kindly note: RARa:RXR (NR concentration 270 nM, RXRa partner concentration 90 nM), "CCTAGTGGGCCATTCAGAGGTCATTGATCATATG" , PBM binding z-score value reported: 4.89

Kindly note: RARa:RXR (NR concentration 270 nM, RXRa partner concentration 90 nM), "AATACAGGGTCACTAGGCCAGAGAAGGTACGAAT" , PBM binding z-score value reported: 3.74
